# System: PANC-1
# EXPERIMENT_NOTES: Cytotoxicity against human PANC1 cells after 48 hrs by SRB assay
# Type: functional
# RECORDED_CONDITIONS: PANC-1, 48 h, read-out: LC50 (the source's name)
Collected CC50 values appear next to each entry.
Report the figure in µM without appending any unit label.

INSERT INTO assay_data (given_smiles, measurement_kind, numeric_result) VALUES
  ('C/C=C1\NC(=O)[C@H](Cc2ccccc2)NC(=O)[C@@H](C(C)C)NC(=O)[C@@H]([C@H](C)CC)NC(=O)[C@H](NC(=O)[C@H](NC(=O)[C@H](CCCNC(=O)C[C@](OC)(c2ccccc2)C(F)(F)F)NC(=O)[C@H]2CCCN2C(=O)[C@H](NC(=O)[C@@H](NC(=O)[C@@H](NC(=O)[C@H](NC(=O)CCCC(C)C)C(C)C)[C@@H](C)O)C(C)C)C(C)C)[C@H](C)CC)[C@H](C)OC(=O)[C@H](C(C)C)NC1=O', 'CC50', 1.55),
  ('C/C=C1\NC(=O)[C@H](Cc2ccccc2)NC(=O)[C@@H](C(C)C)NC(=O)[C@@H]([C@H](C)CC)NC(=O)[C@H](NC(=O)[C@H](NC(=O)[C@H](CCCN)NC(=O)[C@H]2CCCN2C(=O)[C@H](NC(=O)[C@H](CC(C)C)NC(=O)[C@@H](NC(=O)[C@H](NC(=O)CCCC(C)C)C(C)C)[C@@H](C)O)C(C)C)[C@H](C)CC)[C@H](C)OC(=O)[C@H](C(C)C)NC1=O', 'CC50', 2.51),
  ('C/C=C1\NC(=O)[C@H](Cc2ccccc2)NC(=O)[C@@H](C(C)C)NC(=O)[C@@H]([C@H](C)CC)NC(=O)[C@H](NC(=O)[C@H](NC(=O)[C@H](CCCN)NC(=O)[C@H]2CCCN2C(=O)[C@H](NC(=O)CCCC(C)C)C(C)C)[C@H](C)CC)[C@H](C)OC(=O)[C@H](C(C)C)NC1=O', 'CC50', 2.45),
  ('C/C=C1\NC(=O)[C@H](Cc2ccc(Cl)cc2)NC(=O)[C@@H](C(C)C)NC(=O)[C@@H]([C@H](C)CC)NC(=O)[C@H](NC(=O)[C@H](NC(=O)[C@H](CCCN)NC(=O)[C@H]2CCCN2C(=O)[C@H](NC(=O)[C@@H](NC(=O)[C@@H](NC(=O)[C@H](NC(=O)CCCC(C)C)C(C)C)[C@@H](C)O)C(C)C)C(C)C)[C@H](C)CC)[C@H](C)OC(=O)[C@H](C(C)C)NC1=O', 'CC50', 1.7);

Consider the record given below.
Query string: Kindly indicate its recorded CC50. Item: C/C=C1\NC(=O)[C@H](Cc2ccc(O)cc2)NC(=O)[C@@H](C(C)C)NC(=O)[C@@H]([C@H](C)CC)NC(=O)[C@H](NC(=O)[C@H](NC(=O)[C@H](CCCN)NC(=O)[C@H]2CCCN2C(=O)[C@H](NC(=O)[C@@H](NC(=O)[C@@H](NC(=O)[C@H](NC(=O)CC[C@@H](C)CC)C(C)C)[C@@H](C)O)C(C)C)C(C)C)[C@H](C)CC)[C@H](C)OC(=O)[C@H](C(C)C)NC1=O
Result string: 2.02

====

# Tested on: A549
# EXPERIMENT_NOTES: Cytotoxicity against human A549 cells after 48 hrs by SRB assay
# Type: functional, cell-based
# RECORDED_CONDITIONS: Homo sapiens, A549, 48 h
Decide using LC50 alone. Strictly below 2000 nM: fulfilled. Equal to or above 2000 nM: not fulfilled.

INSERT INTO assay_data (given_smiles, answer_label) VALUES
  ('C/C=C1\NC(=O)[C@H](Cc2ccccc2)NC(=O)[C@@H](C(C)C)NC(=O)[C@@H]([C@H](C)CC)NC(=O)[C@H](NC(=O)[C@H](NC(=O)[C@H](CCC(=O)O)NC(=O)[C@H]2CCCN2C(=O)[C@H](NC(=O)[C@@H](NC(=O)[C@@H](NC(=O)[C@H](NC(=O)CCCC(C)C)C(C)C)[C@@H](C)O)C(C)C)C(C)C)[C@H](C)CC)[C@H](C)OC(=O)[C@H](C(C)C)NC1=O', 'not fulfilled'),
  ('C/C=C1\NC(=O)[C@H](Cc2ccccc2)NC(=O)[C@@H](C(C)C)NC(=O)[C@@H]([C@H](C)CC)NC(=O)[C@H](NC(=O)[C@H](NC(=O)[C@H](CCCN)NC(=O)[C@H]2CCCN2C(=O)[C@H](NC(=O)[C@@H](NC(=O)[C@@H](NC(=O)[C@H](NC(=O)CCCCC(C)=O)C(C)C)[C@@H](C)O)C(C)C)C(C)C)[C@H](C)CC)[C@H](C)OC(=O)[C@H](C(C)C)NC1=O', 'fulfilled'),
  ('CC[C@@H](C)[C@@H](NC(=O)[C@H](CCCN)NC(=O)[C@H]1CCCN1C(=O)[C@H](NC(=O)[C@@H](NC(=O)[C@@H](NC(=O)[C@H](NC(=O)CCCC(C)C)C(C)C)[C@@H](C)O)C(C)C)C(C)C)C(=O)N[C@H]1C(=O)N[C@H]([C@H](C)CC)C(=O)N[C@H](C(C)C)C(=O)N[C@@H](Cc2ccccc2)C(=O)NC(C)(C)C(=O)N[C@@H](C(C)C)C(=O)O[C@H]1C', 'fulfilled'),
  ('C/C=C1\NC(=O)[C@H](Cc2ccccc2)NC(=O)[C@@H](C(C)C)NC(=O)[C@@H]([C@H](C)CC)NC(=O)[C@H](NC(=O)[C@H](NC(=O)[C@H](CCCN)NC(=O)[C@H]2CCCN2C(=O)[C@H](NC(=O)[C@@H]2CCCN2C(=O)[C@@H](NC(=O)[C@H](NC(=O)CCCC(C)C)C(C)C)[C@@H](C)O)C(C)C)[C@H](C)CC)[C@H](C)OC(=O)[C@H](C(C)C)NC1=O', 'fulfilled');

Now look at this one.
Query string: Here's an entry: C/C=C1\NC(=O)[C@H](Cc2ccccc2)NC(=O)[C@@H](C(C)C)NC(=O)[C@@H]([C@H](C)CC)NC(=O)[C@H](NC(=O)[C@H](NC(=O)[C@H](CCCN)NC(=O)[C@H]2CCCN2C(=O)[C@H](NC(=O)[C@@H](NC(=O)[C@H](C)NC(=O)[C@H](NC(=O)CCCC(C)C)C(C)C)C(C)C)C(C)C)[C@H](C)CC)[C@H](C)OC(=O)[C@H](C(C)C)NC1=O . Is its LC50 below 2000 nM?
Result string: not fulfilled

Origin of measurements: ChEMBL document CHEMBL1156597
